MEASUREMENT TARGET: legumain (Homo sapiens, UniProt Q99538)
Construct: purchased R&D Systems 2199-CY
Sequence (Q99538 18-323 limits assumed): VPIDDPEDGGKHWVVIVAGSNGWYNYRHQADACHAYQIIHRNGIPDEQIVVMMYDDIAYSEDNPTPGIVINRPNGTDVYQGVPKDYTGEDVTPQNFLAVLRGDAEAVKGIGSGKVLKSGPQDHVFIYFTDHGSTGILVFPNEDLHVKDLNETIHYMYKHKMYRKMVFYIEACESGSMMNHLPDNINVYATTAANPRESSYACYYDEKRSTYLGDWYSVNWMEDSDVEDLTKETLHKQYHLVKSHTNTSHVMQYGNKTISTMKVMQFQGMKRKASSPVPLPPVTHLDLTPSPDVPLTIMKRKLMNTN
ASSAY NOTES: Legumain assay (enzymatic cleavage of prodrug)
Format: biochemical
MEASUREMENT SETUP: recombinant human legumain, rh legumain 1 ng/μl, 50 mM MES buffer, 250 mM NaCl, pH 5.0, read-out: half-life of legumain cleavage to the target compound (converted)
PROPERTY MEASURED: half-life (h)
Hi! Could you send only the number? It should be in h, unit omitted.

Exercise: I'm curious: which half-life was measured for CNC(=O)[C@H](CCN(C(=O)CO)[C@@H](c1cc(-c2cc(F)ccc2F)cn1Cc1ccccc1)C(C)(C)C)NC(=O)[C@H](CC(N)=O)NC(=O)[C@H](C)NC(=O)[C@H](C)NC(=O)Cc1ccncc1 tested on legumain (Homo sapiens, UniProt Q99538)?
Solution: 1.1
